- Tested on: extraintestinal Escherichia coli isolates
- TEST: Antimicrobial susceptibility testing (CLSI breakpoints), Olmsted County isolates
- Format: cell-based
- SETUP_CONDITIONS: ST9, N = 32
Would you kindly list No. of resistant isolates (column %) for each of these molecules?

{"columns": ["SMILES_STRUCTURE", "No. of resistant isolates (column %)"],
 "data": [
  ["Cc1nnc(SCC2=C(C(=O)O)N3C(=O)[C@@H](NC(=O)Cn4cnnn4)[C@H]3SC2)s1", "3 (9)"],
  ["O=C1CN(/N=C/c2ccc([N+](=O)[O-])o2)C(=O)N1", "1 (3)"]
]}

Q) Field request: No. of resistant isolates (column %) | item: CC1(C)S[C@@H]2[C@H](NC(=O)[C@H](N)c3ccccc3)C(=O)N2[C@H]1C(=O)O
A) 13 (41)

---

Would you kindly list Overall prevalence in population, % for each of these compounds?
- Tested on: Escherichia coli clinical isolates from U.S. veterans
- TEST: Susceptibility testing (broth microdilution or disk diffusion) at VAMCs with population back-calculations
- Type: cell-based
- SETUP_CONDITIONS: resistance phenotype, back-calculated with 29% FQ resistance
One number for each entry, in %.

Each compound below has a reported value. Please supply its Overall prevalence in population, %.
1. O=C1CN(/N=C/c2ccc([N+](=O)[O-])o2)C(=O)N1 [Nitrofurantoin, nitrofurantoin]
2. Cc1nnc(SCC2=C(C(=O)O)N3C(=O)[C@@H](NC(=O)Cn4cnnn4)[C@H]3SC2)s1 [Cefazolin, cefazolin]
3. C[C@@H](O)[C@H]1C(=O)N2C(C(=O)O)=C(SCCN=CN)C[C@H]12 [Imipenem, imipenem]

A)
1: 6; 2: 17; 3: 0.25
